Assay: chemical genetic growth profiling, strain panel (AID 1159580);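 also: tested at 20 µM; growth read once vehicle control cultures reached saturation at 30 °C; 1 = growth at the plate median or of vehicle wells; lower values mean less growth of the strain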
Conditions: S. cerevisiae deletion strains, growth OD, locus YNL183C, strain NPR1, stronger effect = lower value
Out of some 5,500 compounds screened, about 2,000 (36%) were called active. Inconclusive results (about 18%) are left out. This is one part of the list.
Quantity Kind: normalized growth
Reply briefly: the number, and no unit.

Consider the molecule `CN1CCC(=C2c3ccccc3Sc3ccccc32)CC1` and give its recorded normalized growth. 0.892

Consider the molecule `CN(C)CC/C=C1\c2ccccc2Sc2ccc(Cl)cc21` and give its recorded normalized growth. 0.872

Consider the molecule `O=C(O)c1cc2ccccc2c(Cc2c(O)c(C(=O)O)cc3ccccc23)c1O` and give its recorded normalized growth. 0.829

Consider the molecule `Nc1ccccc1SCc1c(Cl)cccc1Cl` and give its recorded normalized growth. 0.79

Consider the molecule `O=S(=O)(Nc1cccc(CCc2ccccn2)c1)c1cc(Cl)c(Cl)cc1Cl` and give its recorded normalized growth. 1.04

Consider the molecule CC1=C(CC(=O)O)c2cc(F)ccc2/C1=C\c1ccc(S(C)=O)cc1 (stereo not drawn) and give its recorded normalized growth. 0.946

Consider the molecule `CN1CCC(=C2c3ccccc3CC(=O)c3sccc32)CC1` and give its recorded normalized growth. 0.991

Consider the molecule `CS(=O)(=O)c1ccc(C2=C(c3ccccc3)C(=O)OC2)cc1` and give its recorded normalized growth. 0.984
